Assay: Pharmacokinetic analyses in mice (PO suspension, IV, SC)
Type: in vivo, mouse
Conditions: female, CD-1, mouse, in vivo, po, 10 mg/kg, PO (10 mg/kg susp.), 8 hrs, mean of 3 animals; read-out: MBX 4132 Concentrations in Mouse Plasma, Mean
EXPERIMENTAL_ENDPOINT: concentration at 8 h (ng/mL)
Give bare numbers, in ng/mL.

For the molecule shown here, O=C(Nc1nnc(-c2ccc(F)cc2)o1)N1CCc2ccccc2C1 , give the reported concentration at 8 h.
9920

###

Target: Kv4.3/ChIP2 (Homo sapiens)
Construct: Eurofins Discovery Services (contract assay) CYL8069QP2DR
Sequence (Q9UK17 whole entry): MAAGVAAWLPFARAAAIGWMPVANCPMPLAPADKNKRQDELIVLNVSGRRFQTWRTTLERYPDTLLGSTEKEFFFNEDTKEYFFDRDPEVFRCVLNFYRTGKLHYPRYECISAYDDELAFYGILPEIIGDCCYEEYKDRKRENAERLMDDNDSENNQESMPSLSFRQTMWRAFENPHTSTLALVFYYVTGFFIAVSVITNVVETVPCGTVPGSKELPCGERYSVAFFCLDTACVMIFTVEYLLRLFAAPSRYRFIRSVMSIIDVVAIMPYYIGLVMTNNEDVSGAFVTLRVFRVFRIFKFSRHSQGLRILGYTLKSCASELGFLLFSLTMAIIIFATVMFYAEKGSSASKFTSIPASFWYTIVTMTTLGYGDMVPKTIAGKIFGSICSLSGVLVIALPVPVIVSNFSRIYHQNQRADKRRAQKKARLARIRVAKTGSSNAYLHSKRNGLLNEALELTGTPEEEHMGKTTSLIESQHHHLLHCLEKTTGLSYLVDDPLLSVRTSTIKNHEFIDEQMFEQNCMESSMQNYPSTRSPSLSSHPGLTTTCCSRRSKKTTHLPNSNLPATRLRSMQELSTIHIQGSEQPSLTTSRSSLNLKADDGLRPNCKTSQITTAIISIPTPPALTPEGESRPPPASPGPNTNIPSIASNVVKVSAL
Sequence (Q9NS61 whole entry partner): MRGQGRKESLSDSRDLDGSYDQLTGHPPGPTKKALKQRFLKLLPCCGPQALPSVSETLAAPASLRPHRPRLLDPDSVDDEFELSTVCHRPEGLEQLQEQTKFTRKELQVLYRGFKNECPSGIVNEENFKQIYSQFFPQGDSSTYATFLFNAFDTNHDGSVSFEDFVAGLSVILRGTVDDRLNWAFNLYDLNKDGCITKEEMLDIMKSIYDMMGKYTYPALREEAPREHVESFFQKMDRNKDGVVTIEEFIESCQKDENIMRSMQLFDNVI
Experiment: Cardiac Ion Channel Panel
Type: cell-based
Conditions: Kv4.3/ChIP2 antagonist; Peak $ End; CYL8069QP2DR; read-out: IC50 (µM) reported
EXPERIMENTAL_ENDPOINT: IC50

IC50 for O=C(Nc1nnc(-c2ccc(F)cc2)o1)N1CCc2ccccc2C1 ?
> 30 µM
